Source listed as patent US20240390383A1.

- assayed-target: GCase (GBA) in human fibroblast cell line GM10915 harboring the L444P GBA mutation (Homo sapiens, UniProt P04062, L483P)
- Construct: Human fibroblast cell line GM10915 harboring the L444P GBA mutation; host or cells: GM10915 human fibroblasts
- Sequence (P04062 40-536 L483P): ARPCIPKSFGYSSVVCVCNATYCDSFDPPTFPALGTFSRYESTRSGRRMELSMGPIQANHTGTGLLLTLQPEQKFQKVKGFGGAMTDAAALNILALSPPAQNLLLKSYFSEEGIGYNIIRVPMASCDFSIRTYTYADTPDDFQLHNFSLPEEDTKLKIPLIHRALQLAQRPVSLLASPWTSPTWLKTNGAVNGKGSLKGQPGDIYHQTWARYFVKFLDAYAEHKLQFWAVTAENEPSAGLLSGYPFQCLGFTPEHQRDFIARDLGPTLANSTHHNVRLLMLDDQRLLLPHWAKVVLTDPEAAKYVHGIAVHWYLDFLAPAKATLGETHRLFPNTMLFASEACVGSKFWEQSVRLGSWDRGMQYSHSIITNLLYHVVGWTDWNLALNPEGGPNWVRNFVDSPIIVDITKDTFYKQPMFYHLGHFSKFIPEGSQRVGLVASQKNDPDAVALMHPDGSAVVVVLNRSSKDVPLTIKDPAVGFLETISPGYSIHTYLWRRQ
- test-method-notes: GCase activity assay (4-MUG substrate, normalised to crystal violet staining) in L444P GBA fibroblasts
- Assay type: cell-based
- protocol-conditions: maximum percent GCase activity relative to untreated cells in the dose range tested, 5 days exposure
experimental-readout: Emax (%)
Please state the figure in %; there is no need to write the unit.

For the compound c1cnn(C2(C3=NOCC(CN4CCCCC4)O3)CCNCC2)c1 (stereo not drawn) , report Emax. 311

Give Emax for the following compound: Cn1ccnc1CC1(C2=NOCC(CN3CCCCC3)O2)CCNCC1 (stereo not drawn) 123

State, in one line, measured Emax of CNC(=O)CN1CCCC(C2=NOCC(CN3CCCCC3)O2)C1 (racemic) 175

For CC1(C2=NOCC(CN3CCCCC3)O2)CNCCO1 (racemic) , write its Emax. 273

Quick one: give measured Emax for c1cnc(N2CCC(C3=NOCC(CN4CCCCC4)O3)C2)nc1 (stereo not drawn) 112

Return value of Emax for input O=C1CC(C2=NOCC(CN3CCCCC3)O2)CCN1 (stereo not drawn) , no commentary. 103

Fill in Emax for record CC1(C2=NOCC(CN3CCCCC3)O2)CCCN1 (racemic) 164

Give the reported Emax for this compound. C1CCN(CC2CON=C([C@]34CC[C@H]3CNC4)O2)CC1 (relative stereo) 174

Note Emax for the compound shown: CN(C)CC1CON=C(C2CCN(C)C2)O1 (stereo not drawn) 148
